Where these numbers come from: PubChem BioAssay (NCI)

- Test system: UACC-62 melanoma
- Protocol summary: NCI-60 one-dose screen, 48 h (100 = growth as untreated, 0 = no growth, -100 = all killed)
- Experimental conditions: 10 µM unless noted
Compounds without any hit were thinned out: in the full panel of roughly 83,000, 20% have a hit.
Classes (growth): LOW (below 70%), MID (70% to below 90%), HIGH (90% or more)

Cc1cc(N2CCOCC2)nc(N2CCOCC2)n1 ... HIGH
O=C(N1CCC(CN=c2cc3n(-c4ccc(Cl)cc4)c4ccccc4nc-3cc2Nc2ccc(Cl)cc2)CC1)N1CC1 ... LOW
COc1ccc2nc3cc(Cl)ccc3c(Nc3cc(C(C)C)c(O)cc3C)c2c1 ... LOW
CCN(CC)CCCCNc1c2ccccc2[n+](C)c2c1[nH]c1ccccc12 ... LOW
COc1cc(C2CC(=O)Nc3c2cc(Br)c2ccccc32)cc(Br)c1OC (configuration not stated) ... LOW
COc1ccc2c(c1)nc(N)c1c3cc(C)c(C)cc3cn21 ... LOW
O=C1CCCN1C1CCN(Cc2cc3ccccc3[nH]c2=O)c2ccccc21 (configuration not stated) ... MID
O=C1OC(c2ccc(-c3ccccc3)cc2)=C/C1=C/c1cccs1 ... MID

**Query** Entry Cc1ccsc1/C=C/C1=NCCCN1C belongs to which category?
**Result** HIGH

**Query** Sort into band: Cc1cc(C(C)(C)c2cc(C)c(O)c(CN(C)C)c2)cc(CN(C)C)c1O
**Result** MID

**Query** Lab note: which band did CC(=O)n1c2ccccc2c2ccccc21 land in?
**Result** HIGH

**Query** Returns: class label. Input: Cc1ccc(NC(=O)COC(=O)c2ccc(S(=O)(=O)N3CCCCCC3)cc2)cc1
**Result** HIGH

**Query** Class? Entry: Cc1cc([N+](=O)[O-])c(C)cc1C(=O)O
**Result** HIGH

**Query** Record CCN1C2=C(SC(=S)C1=C1SC(C(=O)OC)=C(C(=O)OC)S1)SC(=Nc1ccc(OC)cc1)C2=O — which class?
**Result** LOW

**Query** Sort Fc1ccc([C@@H]2CCNC[C@H]2COc2ccc3c(c2)OCO3)cc1 into one of the categories.
**Result** LOW

**Query** In plain terms, what class is CC(=O)Oc1ccc(C2OC(c3ccc4ccccc4c3OC(C)=O)=NN2C(C)=O)c(OC(C)=O)c1 (configuration not stated) ?
**Result** LOW

**Query** Kindly state the category for this molecule: CCC1=C(c2ccc(OC)cc2)C(C)Oc2cc(OC(C)=O)ccc21 (configuration not stated)
**Result** MID

**Query** State the band of CN1COc2ccc3ccccc3c2C1
**Result** MID

**Query** Any idea which band Cc1nn(-c2ccc(Cl)cc2)c2nc3c(nc12)c(=O)oc1ccccc13 is in?
**Result** HIGH

**Query** Exam item: assign Cc1c(C)c(N2C(=O)C=CC2=O)c(C)c(C)c1N1C(=O)C=CC1=O to the correct category.
**Result** HIGH

###

- Tested on: SK-MEL-5 melanoma
- Protocol summary: NCI-60 one-dose screen, 48 h (100 = growth as untreated, 0 = no growth, -100 = all killed)
- Experimental conditions: 10 µM unless noted
Compounds without any hit were thinned out: in the full panel of roughly 83,000, 20% have a hit.
Binarize growth at 60%; below is rule met, at or above is rule not met.

COc1ccc(/C(=C2\O[C@@H]([C@H](O)CO)[C@H]3OC(C)(C)O[C@@H]23)c2cc(OC)c(OC)c(OC)c2)cc1O ... rule not met
COC(=O)[C@]12CC[C@@H](C)[C@H](C)[C@@H]1C1=CC[C@@H]3[C@@]4(C)C=C(O)C(=O)[C@@]5(C)COC(=C54)C[C@@]3(C)[C@]1(C)CC2 ... rule met
COc1cc(OC)c2cc(C(=O)O)c(=O)oc2c1 ... rule not met
O=C(/C=C/c1ccccc1)CC(c1ccccc1)N1CCOCC1 (centres undefined) ... rule not met
COc1cc(C2=NN(C(C)=O)C(c3ccc(OC(C)=O)cc3OC(C)=O)O2)c(OC(C)=O)c2ccccc12 (centres undefined) ... rule met
COc1cc(/C=C/C(=O)c2c(-c3ccc(Cl)cc3)nc3sc(C)nn23)cc(OC)c1OC ... rule met
COc1cc(OC)c2sc(-c3ccc(-n4cncc4-c4ccc(N)cc4)cc3)nc2c1 ... rule met

**Query** API: query returns whether the molecule falls strictly under 60% in growth. Query: CC/C=C\C=C/C(=O)N/C=C/CC1Cc2cccc(O)c2C(=O)O1 (centres undefined)
**Result** rule met
